# TESTED_ON: T1, CD27 expressed on the cell surface (HT1080_CD27 cells) (human, UniProt P26842 20-260)
# T1 sequence (looked up): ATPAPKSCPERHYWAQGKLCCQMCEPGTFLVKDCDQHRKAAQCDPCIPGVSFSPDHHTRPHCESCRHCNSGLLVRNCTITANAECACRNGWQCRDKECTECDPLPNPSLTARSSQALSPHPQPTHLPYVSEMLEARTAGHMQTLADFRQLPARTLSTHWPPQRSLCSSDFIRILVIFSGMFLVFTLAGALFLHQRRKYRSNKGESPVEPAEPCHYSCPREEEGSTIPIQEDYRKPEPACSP
# ASSAY_DETAILS: cell-based or functional assay; also: test concentration or dose not given here
Listed here: items and their measured IL-8 [abs. corr.].

- BINDER: "P018.S.07.A.F03 (antibody, V domains shown, V regions on human Ig constant parts; also called AB27_127) VH: QSLEESGGRLVTPGTPLTLTCTASGFSLSNYYITWVRQAPGEGLEWIGTISTAGNTYFASWANGRFTISRTSTTVDLKMTSPTTEDTATYFCARDGAGDSNYYRNLWGQGTLVTVSS VL: DIVLTQTPASVEAAVGGTVTIKCQASQSIDRFLAWYQQKPGQPPKLLIVDASTLESGVPSRFSGSGSGTEFTLTISDLESDNAATYYCQQGYSISDIDNVFGGGTEVVVK"
  IL-8 [abs. corr.] [abs. corr.]: 0.444
- BINDER: "P018.S.01.A.E06 (antibody, V domains shown, V regions on human Ig constant parts; also called AB27_18) VH: QSLEESGGDLVKPGASLTLTCTASGIDFSSSYYMCWVRQAPGKGLEWIGCIATGGGNTYYATWAKGRFTFSETSSTTVTLQMTSLTVADTATYFCARTYPSMWYFNLWGPGTLVTVSS VL: DVVMTQTPASVSEPVGGTVTIKCQASQSIGFNLAWYQQKPGQPPNLLIYGVSTLTSGVSSRFKGSGSGTQFTLTISDLESADAATYYCQSFYAGSSAFGGGTEVVVK"
  IL-8 [abs. corr.] [abs. corr.]: 0.448
- BINDER: "P018.S.06.A.A02 (antibody, V domains shown, V regions on human Ig constant parts; also called AB27_95) VH: QEQLVESGGGLVQPEGSLTLTCTSSGFSLNSNYYISWVRQAPGKGLEWIACIDAGSGSTWYASWVKGRFTISKTSSTTVTLQMTSLTAADTATYFCARDDIGTSYEYYFGLWGPGTLVTVSS VL: DVVLTQTPASVSEPVGGTVTIKCQASQTISSYLAWYQQKSGQPPKLLIYSASTLASGVSSRFKGSGSGTEYTLTISDLESADAATYYCQTYYGSDSYVFGGGTEVVVK"
  IL-8 [abs. corr.] [abs. corr.]: 0.737
- BINDER: "P018.S.05.A.A02 (antibody, V domains shown, V regions on human Ig constant parts; also called AB27_80) VH: QSLEESGGRLVTPGTPLTLICTASGIDLSSYGMTWVRQAPGKGLEWIGIISTIGDTYYASWVKGRFTISKTSTTVDLKITSPTTEDTATYFCARYTNSGYAMMYYFNLWGQGTLVTVSS VL: DIVMTQTPASVEAAVGGTVTIKCQASQNIVNALAWYQQKLGQPPKLLIYVASYLASGVPSRFKGSGSGTEFTLTISDLESVDAATYYCQSYYYSSGTSYGQNAFGGGTEVVVK"
  IL-8 [abs. corr.] [abs. corr.]: 0.212
- BINDER: "P018.S.10.A.B01 (antibody, V domains shown, V regions on human Ig constant parts; also called AB27_166) VH: QSLEESGGRLVTPGTPLTLTCTASGFSLSSYYMSWVRQAPGKGLEWIGIIDRAGTTYYATWAKGRFTISRTSTTVDLKMTSPTTEDTGTYFCARNFIYGVGTYYGSDLWGQGTLVTVSS VL: DVVMTQTPASVSDPVGGTVTIKCQASESISRRLAWYQQKPGQPPKLLIYGASDLASGVPSRFSGSGSGTEFTLTISGVQSDDAATYYCQDTDYGSGHLGAFGGGTEVVVK"
  IL-8 [abs. corr.] [abs. corr.]: 0.08
- BINDER: "P018.S.03.A.H04 (antibody, V domains shown, V regions on human Ig constant parts; also called AB27_62) VH: QSLEESGGRLVTPGTPLTLTCTASGFSLSNYSMNWVRQAPGKGLEWIGIINTYGSAYYASWAKGRFTISKTSTTVDLKMTSLTTEDTATYFCARDAGGSTVPWFFDVWGPGTLVTVSS VL: AYDMTQTPASVEVAVGGTVTIKCQASQTISNYLAWYQQKPGQRPKLLIYDASKLASGVPSRFDGSGSGTEYTLTISGVGSADAATYYCQQGYADSNVDNVFGGGTEVVVK"
  IL-8 [abs. corr.] [abs. corr.]: 0.211
- BINDER: "P018.S.01.A.G03 (antibody, V domains shown, V regions on human Ig constant parts; also called AB27_22) VH: QSVEESGGRLVTPGTPLTLTCTVSGFSLSSYSMIWVRQAPGKGLEWIGIVYASGSTNYASWAKGRFTISKTSTTVDLKITSPTTEDTATYFCARGDVLYAFDPWGPGTLVTVSS VL: AFELTQTPSSVSAAVGGTVTIKCQASENIYSYLAWYQQKPGQPPKRLIYYASNLASGVSSRFKGSGSGTEFTLTISDLESADAATYYCQYTYSTSPGYIFGGGTEVVVK"
  IL-8 [abs. corr.] [abs. corr.]: -0.105
- BINDER: "P018.S.01.A.D02 (antibody, V domains shown, V regions on human Ig constant parts; also called AB27_11) VH: QSLEESGGRLVTPGTPLTLTCTASGFSLSKYDMGWFRQAPGKGLEWIGMIGASDSTYYASWVKGRFTISKTSTTVDLRITSPTTEDTATYFCAREYPDARGYYYNLWGPGTPVTVSS VL: ALVMTQTPASVEAAVGGTVTINCQASQSISDLLAWYQQKPGQPPKPLIYDASDLASGVPSRFKGSGSGTQFTLTISGVQSDDAATYYCQQGYSITNVDNVFGGGTEVVVK"
  IL-8 [abs. corr.] [abs. corr.]: 0.675
- BINDER: "P018.S.04.A.B01 (antibody, V domains shown, V regions on human Ig constant parts; also called AB27_66) VH: QEQLVESGGDLVKPGGTLTLTCTASGFSFSSSYYMSWVRQAPGKGLEWIACIDTADAYTYYASWAKGRFTISKTSSTTVSLQMTSLTAADTATYFCARERIAYNTDYFNLWGPGTLVTVSS VL: AQVLTQTPSPVSAAVGGTVTISCQSSQSLYNYNNLAWYQQKPGQPPKLLIYSASNLASGVPSRFGGSGSGTQFTLTISDLQSDDAATYYCQGYYSGAVYTFGGGTEVVVK"
  IL-8 [abs. corr.] [abs. corr.]: 0.508
- BINDER: "P018.S.02.A.A06 (antibody, V domains shown, V regions on human Ig constant parts; also called AB27_28) VH: QSVEESGGRLVKPDESLTLTCTVSGIDLSTYAMGWVRQAPGKGLEYIGMISTGGSAYYASWAQGRFTISRTSTTVDLKMTSLTTEDTATYFCARLRDPYSYRTYFNLWGPGTLVTVSS VL: ALVMTQTPSSVEAAVGGTVTIKCQASLSISSALAWYQQKPGQRPKLLIYDASNLESGVPSRFKGSGSGAHFTLTVSDLESADAATYYCQGPYDTVNNNSFGGGTEVVVK"
  IL-8 [abs. corr.] [abs. corr.]: 0.299
